target: PI3Kα (alpha) (Homo sapiens (Human)); assay: p110α (alpha) PI3K Binding Assay (ADP-Glo lipid kinase reaction); assay type: biochemical; settings: PI3K alpha 0.2 nM, ATP 40 μM, PIP2:3PS 50 μM, 120 min, room temperature; Ki by Morrison Equation; read-out: PI3Kα-(alpha) ATP (Ki) micromolar
I'd appreciate it if you could supply Ki values for the items below.
Express the result in nM but write the number alone.

Q: # input molecule: "Cn1cc(-c2cc3c4c(c2)nc(-c2ccc5oc(N)nc5c2)n4CCCO3)cn1" ; wanted: its Ki
A: 0.74

Q: Looking for the measured Ki of "NC(=O)[C@@H](Nc1cc2c3c(c1)nc(-c1ccc(F)cc1F)n3CCCO2)C1CC1" , can you help?
A: 382

Q: Item under review: "NC(=O)[C@@H]1CCCN1c1cc2c3c(c1)nc(-c1ccc(-c4ncsn4)cc1)n3CCCO2" . Reported Ki?
A: 8.21

Q: For the molecule shown here, "C[C@@H](Nc1cc2c3c(c1)nc(-c1ccc4oc(N)nc4c1)n3CCCO2)C(N)=O" , give the reported Ki.
A: 0.58

Q: Could you tell me which Ki is on file for COC[C@@H](Oc1cc2c3c(c1)nc(-c1ccc4nc(N)sc4n1)n3CCCCO2)C(N)=O (single isomer, unassigned) ?
A: 0.737

Q: Report Ki for NC(=O)[C@H](Oc1cc2c3c(c1)nc(-c1ccc4nc(N)sc4c1)n3CCCCO2)C1CC1 (single isomer, unassigned) please.
A: 5.53

* * *

target: PI3Kα (alpha) (Homo sapiens (Human), UniProt P42336); assay: p110α (alpha) PI3K Binding Assay (ADP-Glo lipid kinase reaction); format: biochemical; details: PI3K alpha 0.2 nM, ATP 40 μM, PIP2:3PS 50 μM, 120 min, room temperature; Ki by Morrison Equation; read-out: PI3Kα-(alpha) ATP (Ki) micromolar
Sequence (P42336 whole entry): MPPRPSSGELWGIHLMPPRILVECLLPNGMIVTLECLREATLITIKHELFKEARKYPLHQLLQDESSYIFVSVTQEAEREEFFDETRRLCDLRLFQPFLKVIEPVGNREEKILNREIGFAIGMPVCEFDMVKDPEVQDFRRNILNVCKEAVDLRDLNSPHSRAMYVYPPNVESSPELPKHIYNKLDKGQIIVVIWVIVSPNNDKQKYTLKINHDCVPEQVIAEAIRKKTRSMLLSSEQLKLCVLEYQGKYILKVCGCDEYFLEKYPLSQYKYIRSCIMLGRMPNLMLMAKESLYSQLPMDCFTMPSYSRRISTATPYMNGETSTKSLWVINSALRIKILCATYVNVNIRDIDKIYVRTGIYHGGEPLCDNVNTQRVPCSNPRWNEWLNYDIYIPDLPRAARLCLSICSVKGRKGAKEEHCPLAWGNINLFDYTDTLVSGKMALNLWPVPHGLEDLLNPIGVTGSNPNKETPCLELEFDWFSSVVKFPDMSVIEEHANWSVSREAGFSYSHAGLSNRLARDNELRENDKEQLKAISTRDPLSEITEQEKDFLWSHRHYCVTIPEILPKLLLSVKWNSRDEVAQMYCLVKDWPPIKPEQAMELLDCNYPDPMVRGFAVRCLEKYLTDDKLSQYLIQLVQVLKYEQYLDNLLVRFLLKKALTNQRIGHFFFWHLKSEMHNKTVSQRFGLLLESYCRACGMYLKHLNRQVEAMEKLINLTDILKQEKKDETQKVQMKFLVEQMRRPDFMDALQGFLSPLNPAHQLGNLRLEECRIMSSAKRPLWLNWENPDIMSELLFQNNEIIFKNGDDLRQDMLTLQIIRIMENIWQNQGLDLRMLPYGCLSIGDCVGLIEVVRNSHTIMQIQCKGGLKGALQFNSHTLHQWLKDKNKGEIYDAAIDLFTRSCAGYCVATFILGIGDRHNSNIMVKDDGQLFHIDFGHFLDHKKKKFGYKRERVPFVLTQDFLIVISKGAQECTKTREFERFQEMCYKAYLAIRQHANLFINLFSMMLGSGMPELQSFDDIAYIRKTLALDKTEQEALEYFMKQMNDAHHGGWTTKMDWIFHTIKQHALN
Sequence (P27986 whole entry partner): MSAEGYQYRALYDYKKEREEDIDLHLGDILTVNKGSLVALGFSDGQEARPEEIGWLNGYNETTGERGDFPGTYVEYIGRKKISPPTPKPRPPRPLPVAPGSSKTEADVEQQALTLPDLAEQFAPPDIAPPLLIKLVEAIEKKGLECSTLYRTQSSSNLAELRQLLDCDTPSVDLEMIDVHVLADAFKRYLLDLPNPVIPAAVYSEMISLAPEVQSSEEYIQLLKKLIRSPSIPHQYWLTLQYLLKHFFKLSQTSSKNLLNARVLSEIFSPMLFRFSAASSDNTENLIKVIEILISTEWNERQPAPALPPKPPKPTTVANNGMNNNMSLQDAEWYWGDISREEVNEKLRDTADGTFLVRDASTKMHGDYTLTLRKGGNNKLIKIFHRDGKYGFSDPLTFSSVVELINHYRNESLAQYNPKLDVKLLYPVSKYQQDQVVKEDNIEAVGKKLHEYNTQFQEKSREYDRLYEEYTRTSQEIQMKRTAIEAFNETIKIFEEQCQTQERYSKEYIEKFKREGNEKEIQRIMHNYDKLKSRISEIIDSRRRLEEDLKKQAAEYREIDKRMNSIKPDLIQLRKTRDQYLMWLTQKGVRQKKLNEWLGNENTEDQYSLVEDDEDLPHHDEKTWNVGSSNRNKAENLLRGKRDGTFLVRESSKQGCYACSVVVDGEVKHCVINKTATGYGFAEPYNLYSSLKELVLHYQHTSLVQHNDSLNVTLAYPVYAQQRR
Task for the reader: assign each of the following compounds its reported log10 Ki.
Values are log10 of Ki in nM.

Q: Looking for the measured log10 Ki of "CNc1nc2cc(-c3nc4cc(N5CCC[C@H]5C(N)=O)cc5c4n3CCCO5)ccc2o1" , can you help?
A: 0.84

Q: Fill blank: measured log10 Ki of the compound "NC(=O)[C@@H](Nc1cc2c3c(c1)nc(-c1ccc4nc(N)nn4c1)n3CCCO2)C1CC1" is ____.
A: -0.14

Q: # input compound: "Nc1nc2cc(-c3nc4c(F)c(Br)cc5c4n3CCCO5)ccc2o1" ; wanted: its log10 Ki
A: 0.71

Q: Quick one: log10 Ki for "NC(=O)[C@@H](Nc1cc2c3c(c1)nc(-c1ccc(-c4nc[nH]n4)cc1)n3CCCO2)C1CC1" ?
A: -0.82

Q: Dear colleague, I am looking for the recorded log10 Ki of the following compound: "C[C@@H]1Cn2c(-c3ccc4oc(N)nc4c3)nc3cc(N[C@H](C(N)=O)C4CC4)cc(c32)O1"
A: -1.35

* * *

molecular target: PI3Kα (alpha) (Homo sapiens (Human), UniProt P42336); test: p110α (alpha) PI3K Binding Assay (ADP-Glo lipid kinase reaction); type: biochemical; conditions: PI3K alpha 0.2 nM, ATP 40 μM, PIP2:3PS 50 μM, 120 min, room temperature; Ki by Morrison Equation; read-out: PI3Kα-(alpha) ATP (Ki) micromolar
measure: Ki (pM)
Quick reminder: number only, in pM, skip the unit.

Q: Which Ki value belongs to "NC(=O)[C@@H](Nc1cc2c3c(c1)nc(-c1ccc4cncnc4c1)n3CCCO2)C1CC1" ?
A: 19000

Q: What does the record list as Ki for "C[C@H](Nc1cc2c3c(c1)nc(-c1ccccn1)n3CCCO2)C(N)=O" ?
A: 160000

Q: Which Ki is reported for this molecule? N#CC1CCCN(c2nc3cc(NC(C(N)=O)C4CC4)cc4c3n2CCCO4)C1 (stereo not drawn)
A: 262000

Q: What value of Ki has been recorded for this entry: "C[C@H](Oc1cc2c3c(c1)nc(-c1cc(F)c4oc(N)nc4c1)n3CCCO2)C(N)=O"
A: 90

Q: Recorded Ki of C[C@H](Oc1cc2c3c(c1)nc(-c1cc4sc(N)nc4cc1F)n3CCCCO2)C(N)=O (single isomer, unassigned) , please.
A: 208

* * *

target: PI3Kα (alpha) (Homo sapiens (Human)); assay: p110α (alpha) PI3K Binding Assay (ADP-Glo lipid kinase reaction); assay type: biochemical; details: PI3K alpha 0.2 nM, ATP 40 μM, PIP2:3PS 50 μM, 120 min, room temperature; Ki by Morrison Equation; read-out: PI3Kα-(alpha) ATP (Ki) micromolar
measure: pKi
// field semantics: pKi = negative decimal log of concentration (mol/L)

Q: Which pKi reading was recorded for the molecule "COc1ccc(-c2nc3cc(N[C@H](C(N)=O)C4CC4)cc4c3n2CCCO4)cc1C(N)=O" ?
A: 6.80

Q: Look at this molecule and give its reported pKi. "C[C@@H](C(N)=O)N(C)c1cc2c3c(c1)nc(-c1ccc4nc(N)sc4c1)n3CCCCO2"
A: 9.83

Q: Name the reported pKi value associated with the molecule "NC(=O)[C@@H](Nc1cc2c3c(c1)nc(N1CCC(CO)CC1)n3CCCO2)C1CC1"
A: 6.17

Q: Please report the recorded pKi for "NC(=O)[C@@H]1CCCN1c1cc2c3c(c1)nc(-c1ccc(-c4nc[nH]n4)c(Cl)c1)n3CCCO2" .
A: 9.58

Q: Any idea what pKi was measured for "OCc1cnc2cc(-c3nc4cc(Br)cc5c4n3CCCO5)ccc2n1" ?
A: 6.17

Q: # pKi lookup, item COC[C@@H](Oc1cc2c3c(c1)nc(-c1ccc4nc(N)sc4c1)n3CCCCO2)C(N)=O (single isomer, unassigned)
A: 9.90

Q: Data request, read-out pKi, for "C[C@H](Nc1cc2c3c(c1)nc(-c1ccc(C#N)cn1)n3CCCO2)C(N)=O"
A: 6.58

Q: Quick one: pKi of "CS(=O)(=O)c1cncc(-c2nc3cc(N[C@H](C(N)=O)C4CC4)cc4c3n2CCCO4)c1" ?
A: 7.59

Q: Bench note: what pKi did "C[C@H](Nc1cc2c3c(c1)nc(-c1ccc4oc(N)nc4c1)n3CCCO2)C(N)=O" show?
A: 10.49

* * *

Target: PI3Kα (alpha) (Homo sapiens (Human), UniProt P42336)
Experiment: p110α (alpha) PI3K Binding Assay (ADP-Glo lipid kinase reaction)
Format: biochemical
Settings: PI3K alpha 0.2 nM, ATP 40 μM, PIP2:3PS 50 μM, 120 min, room temperature; Ki by Morrison Equation; read-out: PI3Kα-(alpha) ATP (Ki) micromolar
Procedure: The ability of a compound of the invention to act as an inhibitor of PI3Kα was determined using the methods of Example 901. PI3K Binding assays are intended for determining the biochemical potency of small molecule PI3K inhibitors. […] Following the termination if the kinase reaction, turnover of ATP to ADP by the phosphorylation of the lipid substrate is detected using the Promega ADP-Glo™ (Promega #V1792) assay. […]
Counter-ions that a name gives are not always drawn.
measure: pKi
# reply with the number alone; pKi is -log10 of concentration in mol/L

Q: Please report the recorded pKi for NC(=O)[C@@H](Nc1cc2c3c(c1)nc(-c1ccc4nc(Cl)nn4c1)n3CCCO2)C1CC1 [Example 197] .
A: 7.57

Q: Can you share its pKi? I mean this compound: OCc1nc2cc(-c3nc4cc(Br)cc5c4n3CCCO5)ccc2o1 [Example 168]
A: 6.40

Q: I am curious: what pKi value has been reported for CC[C@H](C(N)=O)n1cc(-c2cc3c4c(c2)nc(-c2ccc5oc(N)nc5c2)n4CCCO3)cn1 [Example 216] ?
A: 9.67

Q: Please give the measured pKi for this compound: NC(=O)[C@@H](Oc1cc2c3c(c1)nc(-c1ccc4nc(N)sc4c1)n3CCCCO2)C1CC1 (single isomer, unassigned) [Example 281]
A: 10.57

Q: So what does the record say about pKi for NC(=O)[C@@H](Nc1cc2c3c(c1)nc(-c1ccnc4c1OCO4)n3CCCO2)C1CC1 [Example 195] ?
A: 6.71

Q: Need pKi, item NC(=O)[C@@H](Nc1cc2c3c(c1)nc(-c1ccnc4sccc14)n3CCCO2)C1CC1 [Example 177]
A: 6.63

Q: Fill in the blank: the reported pKi of NC(=O)[C@H](C1CC1)n1cc(-c2cc3c4c(c2)nc(-c2ccc5oc(N)nc5c2)n4CCCO3)cn1 (single isomer, unassigned) [Example 230] is ____.
A: 9.51

Q: Quick one: pKi of C[C@H](Oc1cc2c3c(c1)nc(-c1ccc4nc(N)nnc4c1)n3CCCCO2)C(N)=O [Example 292] ?
A: 10.62

Q: pKi for CC(C)(C(N)=O)n1cc(-c2nc3cc(N[C@H](C(N)=O)C4CC4)cc4c3n2CCCO4)cn1 [Example 181, formic acid salt] ?
A: 6.71

Q: Can you share its pKi? I mean this compound: COC[C@H](Oc1cc2c3c(c1)nc(-c1ccc4nc(N)sc4c1)n3CCCCO2)C(N)=O (single isomer, unassigned) [Example 303]
A: 8.25

Q: Suppose we examine the compound NC(=O)[C@@H](Nc1cc2c3c(c1)nc(-c1ccnnc1)n3CCCO2)C1CC1 [Example 125] ; what pKi value has been reported?
A: 6.66

Q: What value of measured pKi is listed for NC(=O)[C@@H](Nc1cc2c3c(c1)nc(N1CCOCC1)n3CCCO2)C1CC1 [Example 141] ?
A: 6.13

Q: Look at this compound and give its reported pKi. Cc1nn(C)cc1-c1nc2cc(N[C@H](C(N)=O)C3CC3)cc3c2n1CCCO3 [Example 160]
A: 6.04

Q: Look at this compound and give its reported pKi. NC(=O)[C@@H](Nc1cc2c3c(c1)nc(-c1cn[nH]c1)n3CCCO2)C1CC1 [Example 212]
A: 6.83

Q: Reported pKi for NC(=O)[C@@H]1CCCN1c1cc2c3c(c1)nc(-c1ccc(-c4nc[nH]n4)cn1)n3CCCO2 [Example 226] : what is it?
A: 9.41

Q: What pKi value was documented for this compound, NC(=O)[C@@H](Nc1cc2c3c(c1)nc(-c1ccc4sc(N)nc4c1)n3CCCO2)C1CC1 [Example 184] ?
A: 9.31

Q: # pKi lookup, item NC(=O)c1cc(-c2nc3cc(N[C@H](C(N)=O)C4CC4)cc4c3n2CCCO4)ccn1 [Example 151]
A: 7.99

Q: Query (compound): C[C@@H](C(N)=O)n1cc(-c2cc3c4c(c2)nc(-c2ccc5oc(N)nc5c2)n4CCCO3)cn1 [Example 219] ; field requested: pKi
A: 9.62

Q: For the compound C[C@H](Nc1cc2c3c(c1)nc(N1CCC[C@@H](CO)C1)n3CCCO2)C(N)=O [Example 139] , what pKi is on record?
A: 6.54
